- TARGET UNDER TEST: Prostaglandin D2 receptor (Homo sapiens, UniProt Q13258)
- Sequence (Q13258 whole entry): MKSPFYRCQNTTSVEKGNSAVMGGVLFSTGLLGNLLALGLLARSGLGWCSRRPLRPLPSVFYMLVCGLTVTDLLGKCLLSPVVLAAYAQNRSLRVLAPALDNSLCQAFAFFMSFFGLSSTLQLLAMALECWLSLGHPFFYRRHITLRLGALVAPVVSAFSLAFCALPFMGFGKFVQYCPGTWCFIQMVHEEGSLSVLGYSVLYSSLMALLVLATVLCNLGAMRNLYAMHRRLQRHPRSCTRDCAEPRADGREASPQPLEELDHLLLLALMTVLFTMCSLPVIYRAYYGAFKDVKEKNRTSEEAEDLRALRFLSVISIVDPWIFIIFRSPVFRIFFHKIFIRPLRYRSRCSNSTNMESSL
- MEASUREMENT NOTES: Binding affinity to DP receptor
MEASUREMENT NAME: Ki (nM)

Examples with their reported Ki follow.
> print(dat)
                                    compound  measurement.name  measured.value
 1  CC(C)[S+]([O-])c1cccc2c3c(n(Cc4ccc(Cl)cc4)c12)C(CC(=O)O)CCC3 (centres undefined)                Ki              23
 2  CN(C)C(=O)c1cccc2c3c(n(Cc4ccc(Cl)cc4)c12)C(CC(=O)O)CCC3 (centres undefined)                Ki              28
 3  CN(C)S(=O)(=O)c1ccc2c(c1)c1c(n2Cc2ccc(Cl)cc2)C(CC(=O)O)CC1 (centres undefined)                Ki            1100
 4  CS(=O)(=O)c1cc(Br)c2c(c1)c1c(n2Cc2cccc(Cl)c2)C(CC(=O)O)CC1 (centres undefined)                Ki             3.5
 5  CS(=O)(=O)c1cccc2c3c(n(Cc4ccc(Cl)cc4)c12)C(CC(=O)O)CCC3 (centres undefined)                Ki             1.9
 6  O=C(O)CC1CCCc2c1n(Cc1ccc(Cl)cc1)c1c([S+]([O-])Cc3ccccc3)cccc21 (centres undefined)                Ki             3.9
 7  O=Cc1cccc2c3c(n(Cc4ccc(Cl)cc4)c12)C(CC(=O)O)CCC3 (centres undefined)                Ki             6.3
 8  O=C(O)CC1CCCc2c1n(Cc1ccc(Cl)cc1)c1ccccc21 (centres undefined)                Ki              36
 9  CS(=O)(=O)c1ccc2c(c1)c1c(n2Cc2ccc(Cl)cc2)C(CC(=O)O)CC1 (centres undefined)                Ki             300
10  CC(C)(C)c1ccc(Cn2c3c(c4cc(S(C)(=O)=O)cc(Br)c42)CCC3CC(=O)O)cc1 (centres undefined)                Ki             7.5

(A) CS(=O)(=O)c1cc(-c2cccs2)c2c(c1)c1c(n2Cc2ccc(Cl)cc2)C(CC(=O)O)CC1 (centres undefined)
(B) O=C(O)CC1CCCc2c1n(Cc1ccc(Cl)cc1)c1c(CO)cccc21 (centres undefined)
Ask | Which of these two has the smaller recorded Ki: A or B ? Use the label to indicate which entry you chose.
Reply | A

---

- TARGET UNDER TEST: Prostaglandin D2 receptor (Homo sapiens, UniProt Q13258)
- MEASUREMENT NOTES: Binding affinity to DP receptor
pKi: −log10 of the molar value.
MEASUREMENT NAME: pKi

> print(dat)
                                   molecule                         target.under.test  measured.value
1  CS(=O)(=O)c1cc(Br)c2c(c1)c1c(n2Cc2cccc(OC(F)(F)F)c2)C(CC(=O)O)CC1 (configuration not stated)  Prostaglandin D2 receptor (Homo sapiens, UniProt Q13258)            8.39

(1) CS(=O)(=O)c1cc(C2CCCCC2)c2c(c1)c1c(n2Cc2ccc(Cl)cc2)C(CC(=O)O)CC1 (configuration not stated)
(2) CS(=O)(=O)c1cc(C#N)c2c(c1)c1c(n2Cc2ccc(Cl)cc2)C(CC(=O)O)CC1 (configuration not stated)
Ask | Which of these two has the smaller recorded pKi: 1 or 2 ? Use the label to indicate which entry you chose.
Reply | 2

(I) CN(C)S(=O)(=O)c1cc(Br)c2c(c1)c1c(n2Cc2ccc(Cl)cc2)C(CC(=O)O)CC1 (configuration not stated)
(II) CC(O)c1cc(S(C)(=O)=O)cc2c3c(n(Cc4ccc(Cl)cc4)c12)[C@@H](CC(=O)O)CC3 (some centres not stated)
Ask | Param pair: I , II . Output: the one whose pKi is numerically greater. Use the label to indicate which entry you chose.
Reply | II

(A) O=C(O)CC1CCCc2c1n(Cc1ccc(Cl)cc1)c1c(F)cc(F)cc21 (configuration not stated)
(B) CS(=O)(=O)c1cc(Br)c2c(c1)c1c(n2Cc2ccc3sc(Cl)c(Cl)c3n2)C(CC(=O)O)CC1 (configuration not stated)
Ask | Which of these two has the smaller recorded pKi: A or B ? Use the label to indicate which entry you chose.
Reply | A
(A: 7.96, B: 8.36)

These measurements were taken from ChEMBL document CHEMBL1148660.
